From: BigSolDB 2.1

details: in n-propanol, 308.15 K
Quantity kind: solubility (mole fraction)
// print number alone

Input: Given the molecule C=NCC#N , what is its reported solubility (mole fraction)?
Output: 0.00315

====

conditions: in water, 298.15 K
Quantity kind: solubility (mole fraction)
// print number alone

Input: Given the compound C=NCC#N , what is its reported solubility (mole fraction)?
Output: 0.00171

====

conditions: in ethanol, 318.15 K
Quantity kind: solubility (mole fraction)

Input: Given the molecule C=NCC#N , what is its reported solubility (mole fraction)?
Output: 0.00695

====

conditions: in methanol, 283.15 K
Quantity kind: solubility (mole fraction)
// print number alone

Input: Given the compound C=NCC#N , what is its reported solubility (mole fraction)?
Output: 0.00516

====

conditions: in ethanol, 298.15 K
Quantity kind: solubility (mole fraction)
// print number alone

Input: Given the molecule C=NCC#N , what is its reported solubility (mole fraction)?
Output: 0.00357

====

conditions: in n-butanol, 298.15 K
Quantity kind: solubility (mole fraction)
// print number alone

Input: Given the compound C=NCC#N , what is its reported solubility (mole fraction)?
Output: 0.000985

====

settings: in water, 293.15 K
Quantity kind: solubility (mole fraction)
// print number alone

Input: Given the compound C=NCC#N , what is its reported solubility (mole fraction)?
Output: 0.00143

====

details: in n-butanol, 283.15 K
Quantity kind: solubility (mole fraction)

Input: Given the molecule C=NCC#N , what is its reported solubility (mole fraction)?
Output: 0.000578
